B1: glmS ribozyme (parent)
chain: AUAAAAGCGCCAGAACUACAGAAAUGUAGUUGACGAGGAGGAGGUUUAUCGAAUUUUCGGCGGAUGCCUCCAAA

Variants of: B1
Test: self-cleavage kobs at 40 uM GlcN6P; higher = faster cleavage; RNA array
Conditions: with glucosamine-6-phosphate
Variants at the floor of the assay were thinned out.
Each entry below lists one item and its recorded self-cleavage kobs at 40 uM GlcN6P value.

q: Read off the recorded self-cleavage kobs at 40 uM GlcN6P for AUAAAAGCGCCAGAUCUACAGAAAUGUAGUUGACGAGGAGGAGGUUUAUCUAAUUUUCGGCGGAUGCCUCAAAA [A15U G51U C71A]
a: < 1e-05 s⁻¹

q: Read off the recorded self-cleavage kobs at 40 uM GlcN6P for AUAAAAGCGCCAGAACUACAGAAAUGUAGUUGACCAGGAGGAGGUUUAUCGAAUUUUCGGCGGAGGCCUCCAAA [G35C U65G]
a: < 1e-05 s⁻¹

q: Read off the recorded self-cleavage kobs at 40 uM GlcN6P for AUAAAAGCGCCAGAACUACAGAAAUGUAGUAGACGAGGAGGAGGUUUAUCGAAUUUUCGGCGGCUGCCUCCAAA [U31A A64C]
a: < 1e-05 s⁻¹

q: Read off the recorded self-cleavage kobs at 40 uM GlcN6P for AUAAAAGCGCCCGAACUACAGACAUGUAGUUGACGAGGAGGAGGUUUAUCGAAGUUUCGGCGGAUGCCUACAAA [A12C A23C U54G C70A]
a: 8.19e-05 s⁻¹

q: Read off the recorded self-cleavage kobs at 40 uM GlcN6P for AUAAAAGAGCCAGAACUACAGAAAUGUAGUUGAUGAGGAGGAGGUUCAUCGAAUUUUCGGCGGAUGUCUCCAAA [C8A C34U U47C C67U]
a: < 1e-05 s⁻¹

q: Read off the recorded self-cleavage kobs at 40 uM GlcN6P for AUAAAAGCGCCAGGCCUACAGAAAUGUAGUUGACGAGGAGUAGGUUUAUCGAAUUUUUGGCGGAUGCCUCCAAA [A14G A15C G41U C58U]
a: < 1e-05 s⁻¹

q: Read off the recorded self-cleavage kobs at 40 uM GlcN6P for AUAAAAGCGCCAGAACUACAGAAAUGUAGUUGACGAUCAGGAGGUUUAUCGAAUUUUCGGCGGAUGCCUCCAAA [G37U G38C]
a: < 1e-05 s⁻¹

q: Read off the recorded self-cleavage kobs at 40 uM GlcN6P for AUAAAUGCGCUAGAACUACAGAAAUGUAGUUUACGAGGAGGAGGUUUAUCGAAUUUUCGGCGGAUGCCUCCAAA [A6U C11U G32U]
a: < 1e-05 s⁻¹

q: Read off the recorded self-cleavage kobs at 40 uM GlcN6P for AUAAAAGCGCCAGAACUACAGAAAUGUAGUUGACGAGGAGGAGGUUUAUCGAGUAUUCGGCGGAUGCCUCCAAA [A53G U55A]
a: 0.00112 s⁻¹

q: Read off the recorded self-cleavage kobs at 40 uM GlcN6P for AUAAAAGCGCCAGAACUACAGAAAUGUAGUUCACGAGGAGGAGGUUUUUCGAAUUUUCGGCGGAUGCCUCCAAA [G32C A48U]
a: < 1e-05 s⁻¹

q: Read off the recorded self-cleavage kobs at 40 uM GlcN6P for AUAAAAGCGCCAGAACUACAGAAAUGUAGUUGACGAGGAGGAGGUCUAUCGAGUUUUCGGCGGAUGCCUCCAAA [U46C A53G]
a: 8.69e-05 s⁻¹

q: Read off the recorded self-cleavage kobs at 40 uM GlcN6P for AUAAAAGCGCCAGAACUACAGAAAUGUAGUUGUCGAGGAGGAGGUUUAUCGAAUUUUCGGCGGAAGCCUCCAAA [A33U U65A]
a: < 1e-05 s⁻¹

q: Read off the recorded self-cleavage kobs at 40 uM GlcN6P for AUAAAGGCGGCAUAAGUACAGAAAUGUAGUUGACGAGGAGGAGGUUUAUCGAAGUUGCGGCGGAUGCCUCCAAA [A6G C10G G13U C16G U54G U57G]
a: < 1e-05 s⁻¹

q: Read off the recorded self-cleavage kobs at 40 uM GlcN6P for AUAAAAGCGACAGAACUACAGAAAUGUAGUUGACGAGGAGCAGGUUUAUCGAAUUUUCGGCGGAUGCCUCCAAA [C10A G41C]
a: < 1e-05 s⁻¹

q: Read off the recorded self-cleavage kobs at 40 uM GlcN6P for AUAAAAGCGCCAGAACUACAGAAAUGUAGUUGACGAGGAUGAGGUUUAUCUAAUUUUCGGCAGAUGCUUCCAAA [G40U G51U G62A C68U]
a: < 1e-05 s⁻¹
